- subject_of_test: T1, Soluble heterodimeric CD3 protein (hCD3-epsilon/hCD3-delta) with a human Fc tag (hFcΔAdp/hFc) or a mouse Fc … (human, UniProt P07766 23-126; P04234 22-105)
- T1 construct: also called hCD3ε/δ; not shown: Fc tag: human (hFcΔAdp/hFc); which tag was used in Ta
- test_name: SPR Biacore, 25 C, antibody-capture format
So I've got a bunch of binders here, and I need their kon values.
Numbers only, in M⁻¹ s⁻¹.

{"binder": "H2M2885N (antibody, V domains shown, Hybridoma antibody, human variable regions, mouse IgG2 Fc) VH: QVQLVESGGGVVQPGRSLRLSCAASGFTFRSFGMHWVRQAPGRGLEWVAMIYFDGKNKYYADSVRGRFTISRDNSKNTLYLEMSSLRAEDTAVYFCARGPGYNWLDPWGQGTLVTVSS VL: EIVMTQSPATLSVSPGERVILSCRASQSISRNLAWYQQKPGQAPRLLIYGATTRATGVPARFSGSGSGTEFTLTISSLQSEDFAVFYCQQYNNRPLTFGGGTEVEIK", "result_type": "kon", "unit_abbrev": "M⁻¹ s⁻¹", "observed_result": 68200}
{"binder": "H2M2710N (antibody, V domains shown, Hybridoma antibody, human variable regions, mouse IgG2 Fc) VH: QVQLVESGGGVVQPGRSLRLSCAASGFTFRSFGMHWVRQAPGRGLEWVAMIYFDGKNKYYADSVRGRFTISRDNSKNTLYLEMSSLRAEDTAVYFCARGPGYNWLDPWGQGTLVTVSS VL: EIVMTQSPATLSVSPGERATLSCRASQSVSRNLAWYQQKPGQAPRLLIYGASTRATGVPARFSGSGSGTEFTLTISSLQSEDFAVFHCQQYNNRPLTFGGGTEVEIK", "result_type": "kon", "unit_abbrev": "M⁻¹ s⁻¹", "observed_result": 67200}

Please find the next binder below.
H2M2886N (antibody, V domains shown, Hybridoma antibody, human variable regions, mouse IgG2 Fc) VH: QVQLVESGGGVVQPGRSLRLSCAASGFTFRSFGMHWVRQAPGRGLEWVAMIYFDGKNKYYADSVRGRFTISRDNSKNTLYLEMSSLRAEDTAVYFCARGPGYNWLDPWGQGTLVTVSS VL: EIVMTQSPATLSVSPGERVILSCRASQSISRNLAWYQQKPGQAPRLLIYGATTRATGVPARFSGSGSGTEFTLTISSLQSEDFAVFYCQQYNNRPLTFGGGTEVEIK yielded kon of 72900
